B1: PKD2L1 (parent)
chain: TLARCAKDILGFAVMFFIVFFAYA

# Variants of: B1
# Measurement Notes: protein stability index of a GFP-peptide fusion (GPS, HEK-293T) (PSI 1-6); higher = more stable;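 also: lentivirally expressed fusions sorted by FACS into six bins by GFP to DsRed ratio, PSI derived from sequencing read proportions per bin multiplied by bin number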
# Stated Conditions: c terminus: a fixed tail appended
Use 2 as the dividing line for protein stability index, with the line itself on the Y side and lower values as N.

Below, 6 variants whose answers are already recorded.
| Mutant Label | Assigned Class |
| --- | --- |
| F21H | Y |
| I9C | Y |
| A6F | Y |
| G11Q | Y |
| F17C | Y |
| L2V | N |

Query block: Hi, just wondering whether L10A shows protein stability index of 2 or higher.
Result block: Y

Query block: Consider next the variant F12K in the same way.
Result block: Y
